ASSAY TARGET: IKZF3 (Aiolos) (Homo sapiens, UniProt Q96SW2+Q9UKT9)
Construct: endogenous in cells; host or cells: DF15 (HiBiT knock-in)
Sequence (Q9UKT9 whole entry): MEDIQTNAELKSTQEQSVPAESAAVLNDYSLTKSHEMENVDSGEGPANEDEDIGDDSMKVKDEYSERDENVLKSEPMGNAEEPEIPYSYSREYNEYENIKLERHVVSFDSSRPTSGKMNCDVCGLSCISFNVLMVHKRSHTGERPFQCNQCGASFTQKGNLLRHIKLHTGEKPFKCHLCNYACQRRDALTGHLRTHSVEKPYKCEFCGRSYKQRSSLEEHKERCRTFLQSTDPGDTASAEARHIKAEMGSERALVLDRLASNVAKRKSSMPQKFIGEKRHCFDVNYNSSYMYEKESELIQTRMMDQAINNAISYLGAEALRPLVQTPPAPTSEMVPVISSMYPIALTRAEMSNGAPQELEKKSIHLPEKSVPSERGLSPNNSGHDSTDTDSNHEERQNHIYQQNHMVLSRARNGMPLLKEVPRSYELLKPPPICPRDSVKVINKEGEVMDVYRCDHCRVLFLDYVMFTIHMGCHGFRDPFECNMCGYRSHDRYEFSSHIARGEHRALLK
Sequence (Q96SW2 whole entry): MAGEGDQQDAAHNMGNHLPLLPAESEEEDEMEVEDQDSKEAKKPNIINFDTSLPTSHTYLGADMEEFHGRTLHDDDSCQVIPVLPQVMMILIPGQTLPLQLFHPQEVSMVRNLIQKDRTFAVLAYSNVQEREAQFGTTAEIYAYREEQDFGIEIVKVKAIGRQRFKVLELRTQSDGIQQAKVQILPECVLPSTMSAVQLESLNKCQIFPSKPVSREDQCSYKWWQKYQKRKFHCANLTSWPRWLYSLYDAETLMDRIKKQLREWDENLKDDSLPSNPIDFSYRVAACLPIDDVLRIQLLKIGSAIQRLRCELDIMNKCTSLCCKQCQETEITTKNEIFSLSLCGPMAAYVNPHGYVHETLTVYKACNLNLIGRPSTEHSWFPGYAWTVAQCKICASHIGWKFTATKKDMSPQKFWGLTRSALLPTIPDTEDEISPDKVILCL
Sequence (Q16531 whole entry partner): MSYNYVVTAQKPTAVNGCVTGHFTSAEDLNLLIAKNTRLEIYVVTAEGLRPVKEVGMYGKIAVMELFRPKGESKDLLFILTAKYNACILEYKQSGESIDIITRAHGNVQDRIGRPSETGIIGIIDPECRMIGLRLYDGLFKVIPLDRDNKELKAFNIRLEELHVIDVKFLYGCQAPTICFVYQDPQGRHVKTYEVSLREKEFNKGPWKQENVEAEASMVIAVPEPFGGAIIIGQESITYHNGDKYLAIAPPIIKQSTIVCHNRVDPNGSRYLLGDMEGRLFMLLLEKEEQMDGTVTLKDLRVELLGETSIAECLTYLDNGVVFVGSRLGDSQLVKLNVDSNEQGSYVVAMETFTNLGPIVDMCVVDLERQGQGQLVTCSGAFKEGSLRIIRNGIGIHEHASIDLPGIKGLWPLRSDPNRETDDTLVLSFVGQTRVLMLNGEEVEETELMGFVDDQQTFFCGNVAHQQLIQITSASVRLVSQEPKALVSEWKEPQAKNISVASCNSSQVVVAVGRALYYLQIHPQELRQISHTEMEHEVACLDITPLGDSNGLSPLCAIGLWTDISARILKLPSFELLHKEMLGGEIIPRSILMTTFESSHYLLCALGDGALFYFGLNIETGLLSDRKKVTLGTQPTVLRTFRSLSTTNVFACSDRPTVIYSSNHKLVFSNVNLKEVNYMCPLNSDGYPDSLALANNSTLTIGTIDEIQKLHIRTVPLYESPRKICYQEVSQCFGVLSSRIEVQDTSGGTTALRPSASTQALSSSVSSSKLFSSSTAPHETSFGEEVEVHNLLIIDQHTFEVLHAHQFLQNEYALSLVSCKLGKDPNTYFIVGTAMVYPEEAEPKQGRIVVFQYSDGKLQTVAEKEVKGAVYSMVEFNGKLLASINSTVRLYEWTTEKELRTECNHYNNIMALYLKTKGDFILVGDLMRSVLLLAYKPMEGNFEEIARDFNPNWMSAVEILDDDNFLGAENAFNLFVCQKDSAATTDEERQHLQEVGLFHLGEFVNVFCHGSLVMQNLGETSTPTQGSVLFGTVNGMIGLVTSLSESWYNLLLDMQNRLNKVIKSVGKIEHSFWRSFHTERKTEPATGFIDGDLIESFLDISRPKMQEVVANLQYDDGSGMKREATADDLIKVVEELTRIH
TEST SUMMARY: HiBiT degradation assay, DF15/HiBiT-IKZF3 KI cells
Format: cell-based
CONDITION INFO: degradation, 4 hr incubation, top conc 10 uM, N ≥ 3
MEASUREMENT TYPE: EC50

Past entries and their recorded results:
# EC50 (molecule: O=C1CCC(N2Cc3cc([C@@H]4C[C@]4(C(=O)OCC(Cl)(Cl)Cl)c4ccc(Br)cc4)ccc3C2=O)C(=O)N1 (stereo partly drawn) [Compound 15a] ) is > 10 µM

Form field EC50, entry O=C1CCC(N2C(=O)c3ccc([C@@H]4C[C@]4(C(=O)OCC(Cl)(Cl)Cl)c4ccc(Br)cc4)cc3C2=O)C(=O)N1 (stereo partly drawn) [Compound 16a] : > 10 µM

Short answer for O=C1CCC(N2Cc3ccc(C4=C[C@]4(C(=O)OCC(Cl)(Cl)Cl)c4ccc(Br)cc4)cc3C2=O)C(=O)N1 (stereo partly drawn) [Compound 23a] : EC50 was > 10 µM

GET /value?item= O=C1CCC(N2C(=O)c3cccc(C4=C[C@]4(C(=O)OCC(Cl)(Cl)Cl)c4ccc(Br)cc4)c3C2=O)C(=O)N1 (stereo partly drawn) [Compound 20a] &field=EC50 returns 0.9 µM

// EC50 lookup, molecule = O=C1CCC(N2C(=O)c3cccc([C@@H]4C[C@]4(C(=O)OCC(Cl)(Cl)Cl)c4ccc(Br)cc4)c3C2=O)C(=O)N1 (stereo partly drawn) [Compound 14a] , result: > 10 µM

***
Reported EC50 for O=C1CCC(N2Cc3cc([C@H]4C[C@@]4(C(=O)OCC(Cl)(Cl)Cl)c4ccc(Br)cc4)ccc3C2=O)C(=O)N1 (stereo partly drawn) [Compound 15b] was > 10 µM

// field: EC50; key: O=C1CCC(N2Cc3cccc(C4=C[C@@]4(C(=O)OCC(Cl)(Cl)Cl)c4ccc(Br)cc4)c3C2=O)C(=O)N1 (stereo partly drawn) [Compound 24b] ; value = > 10 µM

// EC50 lookup, molecule = O=C1CCC(N2C(=O)c3ccc(C4=C[C@@]4(C(=O)OCC(Cl)(Cl)Cl)c4ccc(Br)cc4)cc3C2=O)C(=O)N1 (stereo partly drawn) [Compound 22b] , result: 0.31 µM

EC50 in this record for O=C1CCC(N2C(=O)c3ccc([C@H]4C[C@@]4(C(=O)OCC(Cl)(Cl)Cl)c4ccc(Br)cc4)cc3C2=O)C(=O)N1 (stereo partly drawn) [Compound 16b] : > 10 µM

---

ASSAY TARGET: GSPT1 (Homo sapiens, UniProt P15170+Q96SW2)
Construct: expressed in transfected cells; host or cells: DF15
Sequence (P15170 1-637 isoform P15170-3): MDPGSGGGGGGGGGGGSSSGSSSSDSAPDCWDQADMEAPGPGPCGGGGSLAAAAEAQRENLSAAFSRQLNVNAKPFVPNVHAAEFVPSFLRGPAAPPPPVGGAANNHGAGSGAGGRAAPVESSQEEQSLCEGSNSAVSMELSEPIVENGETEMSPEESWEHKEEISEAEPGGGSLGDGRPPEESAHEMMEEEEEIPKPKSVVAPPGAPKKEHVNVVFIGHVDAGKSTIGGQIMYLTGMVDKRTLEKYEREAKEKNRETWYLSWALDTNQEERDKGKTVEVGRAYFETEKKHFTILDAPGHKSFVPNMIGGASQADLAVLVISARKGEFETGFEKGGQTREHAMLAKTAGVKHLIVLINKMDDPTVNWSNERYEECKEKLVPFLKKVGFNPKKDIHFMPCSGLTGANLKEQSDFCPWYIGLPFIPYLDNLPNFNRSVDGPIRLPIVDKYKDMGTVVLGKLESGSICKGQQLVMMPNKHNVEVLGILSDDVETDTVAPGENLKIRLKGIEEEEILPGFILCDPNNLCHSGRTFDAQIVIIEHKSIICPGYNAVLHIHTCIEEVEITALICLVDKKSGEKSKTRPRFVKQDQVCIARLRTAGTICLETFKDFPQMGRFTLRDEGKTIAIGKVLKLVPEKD
Sequence (Q96SW2 whole entry): as the sequence (Q96SW2 whole entry) above
Sequence (Q16531 whole entry partner): as the sequence (Q16531 whole entry partner) above
TEST SUMMARY: ePL degradation assay, DF15/GSPT1 ePL OE cells
Type: cell-based
CONDITION INFO: depth of degradation (100% = no reduction, 0% = complete degradation), 20 hr, N ≥ 3
Procedure: Section 6: Assay Protocols Fluorescence Resonance Energy Transfer-Based NSD@ PWWP Cereblon Binding Assay. […] Compounds for testing were spotted into a 1536 well plate (Greiner Cat#782075). CRBN and Tracer solution were incubated in compound wells for 20 minutes. […] Plates were incubated for 30 minutes before being read on Pherastar FSX plate reader using TR-FRET module (Excitation 340nm, Emssion 615/665nm). ePL and HiBiT degradation assays […]
MEASUREMENT TYPE: GSPT1 Ymin (%)
Number only, in %; omit the unit.

Reference set, count: 6
Lab note: O=C1CCC(N2C(=O)c3cccc([C@H]4C[C@@]4(C(=O)OCC(Cl)(Cl)Cl)c4ccc(Br)cc4)c3C2=O)C(=O)N1 (stereo partly shown) [Compound 14b] gave GSPT1 Ymin of 87

Looking up O=C1CCC(N2Cc3ccc(C4=C[C@]4(C(=O)OCC(Cl)(Cl)Cl)c4ccc(Br)cc4)cc3C2=O)C(=O)N1 (stereo partly shown) [Compound 23a] , I see its GSPT1 Ymin listed as 82

Noted for O=C1CCC(N2Cc3c(cccc3[C@@H]3C[C@]3(C(=O)OCC(Cl)(Cl)Cl)c3ccc(Br)cc3)C2=O)C(=O)N1 (stereo partly shown) [Compound 13a] : its GSPT1 Ymin reads 92

Lab book: GSPT1 Ymin of O=C1CCC(N2Cc3c(cccc3C3=C[C@@]3(C(=O)OCC(Cl)(Cl)Cl)c3ccc(Br)cc3)C2=O)C(=O)N1 (stereo partly shown) [Compound 19b] noted as 66

GSPT1 Ymin reported for this compound O=C1CCC(N2Cc3cc(C4=C[C@@]4(C(=O)OCC(Cl)(Cl)Cl)c4ccc(Br)cc4)ccc3C2=O)C(=O)N1 (stereo partly shown) [Compound 21b] : 7.7

The measured GSPT1 Ymin associated with O=C1CCC(N2Cc3ccc(C4=C[C@@]4(C(=O)OCC(Cl)(Cl)Cl)c4ccc(Br)cc4)cc3C2=O)C(=O)N1 (stereo partly shown) [Compound 23b] reads 88

Attention now turns to another entry.
Measured GSPT1 Ymin, O=C1CCC(N2C(=O)c3cccc([C@@H]4C[C@]4(C(=O)OCC(Cl)(Cl)Cl)c4ccc(Br)cc4)c3C2=O)C(=O)N1 (stereo partly shown) [Compound 14a] : 91
